test: COS7 lysate on small-molecule microarray, probe aHis, 635 nm (AID 1123); conditions: COS7 cell lysate, fluorescence, higher = more signal;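 note: z-score combines 667nm fluorescence intensity with signal-to-noise per printed compound spot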
Recorded composite z-score determines the group label, using bin A (below 1), bin B (1 to below 2), bin C (2 or more)

Input line: Which category does the recorded composite z-score put `C[N+](C)(C)CCCCCCNC(=O)[C@H]1C[C@H]2C(=O)N3CCC[C@H]3C(=O)N2[C@H]1c1cccc(OCCO)c1` in?
Output line: bin B

Input line: Assign a bin to `CN(C)C(=O)[C@]1(Cc2ccccc2N=[N+]=[N-])N=C(c2ccc(OCCCO)cc2)O[C@@H]1c1ccccc1CN=[N+]=[N-]`
Output line: bin C

Input line: Which class holds `O=C1c2ccccc2[C@](Cc2ccccc2I)(C(=O)NC2CC2)[C@H](c2ccc(CO)cc2)N1Cc1ccccc1Cl` ?
Output line: bin B

Input line: Lab note: which band did `COC(=O)[C@]1(Cc2ccccc2CN=[N+]=[N-])N=C(c2ccc(OCCCO)cc2)O[C@@H]1c1ccccc1` land in?
Output line: bin A

Input line: For this molecule, which bin applies? Cc1cc(C)c(C(O)C2C=CC3C(=O)N(c4ccccc4)C(=O)C3N2Nc2ccccc2)c(C)c1 (stereo not drawn)
Output line: bin C

Input line: Just checking, what class would you give `O=C(N1CCOCC1)[C@@]1(CCS(=O)(=O)c2ccccc2)COC(c2ccc(OCCCO)cc2)=N1` here?
Output line: bin C

Input line: Record CN1C(=O)C2C=CC(C(O)c3cccc4ccccc34)N(NC(=O)OC(C)(C)C)C2C1=O (stereo not drawn) — which class?
Output line: bin C

Input line: Hi there! Could you help me figure out the category for `COCC(=C=CC[C@@H](O)c1ccccc1OCCO)C[C@@H](O)c1ccccn1` please?
Output line: bin B

Input line: Lab note: which band did `C/C=C/[C@@H](CCn1cc([C@H](O)c2ccccc2)nn1)[Si](C)(C)c1ccc(OC)cc1` land in?
Output line: bin B

Input line: Determine which band this molecule sits in: `COCC(=C=CC[C@@H](O)c1ccccc1OCCO)C[C@@H](O)COCc1ccccc1`
Output line: bin C

Input line: Kindly state the category for this molecule: `COC(=O)[C@@]1(Cc2ccc(OC)cc2)[C@H]2c3cc(C(=O)N4CCCC4)n(CCF)c3C[C@H]2CN1C(=O)c1ccccc1`
Output line: bin C

Input line: Exercise: read the entry `COCCCNC(=O)[C@@H]1c2ccccc2C(=O)N(c2ccc(C)cn2)[C@H]1c1ccc(CO)cc1` and state which class it falls under.
Output line: bin A

Input line: Please indicate the class for `CC(C)C[C@@H]1NC(=O)[C@@H]2C[C@H](C(=O)NCc3ccc(F)cc3)[C@H](c3ccc(O)cc3)N2C1=O` based on its composite z-score.
Output line: bin C

Input line: Hi there! Could you help me figure out the category for `C[N+](C)(C)CCCCCCNC(=O)[C@@H]1C[C@@H]2C(=O)NCC(=O)N2[C@@H]1c1cccc(OCCO)c1` please?
Output line: bin B

* * *

test: optical density change of DRC41 E. coli – strain DRC41, OD650, 24 h, E. coli filamentation project, primary screen (AID 1093);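 note: MC1000 strain lacking acrAB efflux and sulA so SOS filamentation is blocked; test concentration not given here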; details: E. coli DRC41 growth, higher = more signal, called active from +8 up or from −8 down
outcome_measure: z-score
Respond with the number and no other words.

The following molecules have reported results that may help.
# molecule, z-score
rows = [
    ("C=C(/C(=C/C[C@@H](OC(=O)c1ccncc1)c1ccccc1OCCO)c1cnc2ccccc2c1)C(C)C", -0.0023),
    ("CCCNC(=O)[C@@H]1c2ccccc2C(=O)N(CC23CC4CC(CC(C4)C2)C3)[C@H]1c1ccc(CO)cc1", -0.693),
]

# molecule `COC(=O)C(CC#Cc1ccc2c(c1)[C@]1(C(=O)N2)[C@H](c2ccccc2OCCO)N2[C@H](c3ccccc3)[C@H](c3ccccc3)OC(=O)[C@H]2[C@@H]1C(=O)Nc1nc2ccccc2s1)C(=O)OC` ; its z-score = -0.724

The recorded z-score for `COC(=O)[C@@]1(Cc2ccc(OC)cc2)[C@H]2c3cc(C(=O)N(C)C)n(CCF)c3C[C@H]2CN1C(=O)c1ccccc1` is -0.0418

* * *

assay: change in splice reporter luminescence, either direction, cell-based, HEK293, spliceosome inhibition project, primary screen (AID 1101); settings: HEK293 splicing luciferase reporter, 24 h, higher = more signal, called active from +8 up or from −8 down;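 note: HEK293 cells carrying a splicing-competent luciferase reporter gene; test concentration not given here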
Answer NO if z-score is under -0.02, and YES if it is -0.02 or more.

Below, 6 compounds whose answers are already recorded.
# structure, class_label
records = [
    ("C=CCOC(=O)[C@H]1[C@@H]2C(=O)O[C@@H](c3ccccc3)[C@@H](c3ccccc3)N2[C@@H](c2ccc(OCCOC(=O)[C@H]3C[C@H]4C(=O)N[C@@H](CCCCN(C)C)C(=O)N4[C@H]3c3ccc(O)cc3)cc2)[C@]12C(=O)Nc1ccccc12", "NO"),
    ("C=C(COC)/C(=C/C[C@@H](OC(=O)c1ccncc1)c1cccc(OCCO)c1)c1cc(C(=O)OC)ccc1OC", "NO"),
    ("COc1ccc(C#Cc2ccc3c(c2)[C@]2(C(=O)N3)[C@H](C(N)=O)[C@H]3C(=O)O[C@H](c4ccccc4)[C@H](c4ccccc4)N3[C@@H]2c2ccc(O)cc2)cc1", "YES"),
    ("COCCOC(=O)N1C(=O)[C@@]2(c3cc(C#CCC(C(=O)OC)C(=O)OC)ccc31)[C@H](C(=O)N1CCCCCCC1)[C@H]1C(=O)O[C@H](c3ccccc3)[C@H](c3ccccc3)N1[C@@H]2c1ccc(O)cc1", "YES"),
    ("COc1ccccc1CN1C(=O)c2ccccc2[C@@H](C(=O)NCC(C)C)[C@@H]1c1ccc(CO)cc1", "NO"),
    ("O=C1N(CCS(=O)(=O)c2ccccc2)c2ccccc2[C@H]2OC(c3ccc(OCCCO)cc3)=N[C@@]12CCS(=O)(=O)c1ccccc1", "NO"),
]

Input line: Check this compound for z-score at or above -0.02: `Cc1ccc(S[C@]2(C(=O)NCCN3CCOCC3)CC(=O)N(C3Cc4ccccc4C3)[C@@H]2c2ccc(CO)cc2)cc1`
Output line: NO

* * *

experiment: growth modulation of vineyard yeast isolate – strain RM11-1a, OD600, basal, 24 h, primary screen (AID 1177);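 note: cultures grown under basal conditions with no added stressor; test concentration not given here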; conditions: S. cerevisiae RM11-1a growth, OD600, 24 h; higher = more signal, called active from +8 up or from −8 down
Label 1 when z-score is at or above 0.2; anything below gets -1.

Input line: Form field: z-score at least 0.2? Entry: `O=C1N(CCS(=O)(=O)c2ccccc2)Cc2ccccc2C[C@@]12COC(c1ccc(OCCCO)cc1)=N2`
Output line: 1

* * *

Listing: composite z-score of selected compounds
assay: small molecules captured by biotinylated probe aFSTL3 – biochemical, small-molecule microarray, fluorescence 635/667, stem cell growth factor project, primary screen (AID 1064); conditions: higher = more signal;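 note: measures binding of the biotinylated anti-FSTL3 antibody to printed compounds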
# respond with the number and nothing more

# compound, composite z-score
rows = [
    ("CN(C)C(=O)[C@@]1(CCC(=O)OC(C)(C)C)N=C(c2ccc(OCCCO)cc2)O[C@H]1c1ccccc1N=[N+]=[N-]", 0.294),
    ("COc1ccc([Si](C)(C)[C@@H]2[C@@H](CCO)O[C@]3(C(=O)N(Cc4cccc(N5C(=O)COc6ccccc65)c4)c4ccccc43)[C@H]2C)cc1", 0.0857),
]

// below: composite z-score requested for another compound
Memo: CN1C(=O)C2C=CC(C(O)c3cccc4ccccc34)N(NC(=O)OC(C)(C)C)C2C1=O (stereo not drawn) , reported composite z-score: 1.07

* * *

assay: calcein-AM signal in unstimulated myeloma cells – cell-based, calcein-AM fluorescence, 48 h, PK04 Diversity Set, profiling panel (AID 1166); settings: RPMI8226 myeloma viability, higher = more signal;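 note: cells grown under basal conditions without added stimulus; test concentration not given here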
outcome_measure: z-score
Please state the value as a number alone, without comment.

Here's what some known entries look like.
# molecule, z-score
measured = [
    ("CC(C)CN1C(=O)[C@@]2(Cc3ccccc31)c1ccccc1C(=O)N(Cc1ccccc1)[C@H]2c1ccc(CO)cc1", -0.152),
    ("CCC[C@@H]1C[C@@]1(CCC)[C@@H](NC(=O)c1ccco1)c1ccc(Cl)cc1", -4.31),
    ("Cc1ccc(S[C@]2(C(=O)NCC(C)C)CC(=O)N(C3CCCCC3)[C@@H]2c2ccc(CO)cc2I)cc1", -3.46),
]

Please find the next molecule below.
So for O=C1C2C=CC(C(O)c3ccc(Br)cc3)N(Nc3ccccc3)C2C(=O)N1c1ccccc1 (centres undefined) , the logged z-score turned out to be 0.134

* * *

assay: probe aXIP binding to arrayed compounds – biochemical, NeuroSMM set, 635/667 nm fluorescence, primary screen (AID 1119); settings: small-molecule microarray, higher = more signal, called active from +8 up or from −8 down;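 note: probe is the protein aXip251-270 applied at 1 µg/mL to compound-printed slides; binding of probe to printed compounds measured as 667 nm fluorescence plus signal to noise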
Label rule, in plain words: composite Z-score of 0.4 and up is 1 (yes), under 0.4 is 0 (no).

As a guide, the following entries are already answered.
# compound, class_label
measured = [
    ("CN(C)CCCN1C(=O)[C@@]2(Cc3ccccc31)c1ccccc1C(=O)N(Cc1ccccc1)[C@H]2c1ccc(CO)cc1", "1 (yes)"),
    ("COC(=O)[C@@]1(Cc2ccc(F)cc2)[C@H]2c3cc(C(=O)N(C)C)n(Cc4ccc(C)c(F)c4F)c3C[C@H]2CN1C(=O)c1ccccc1", "1 (yes)"),
    ("COc1ccc(CCNC(=O)[C@@H]2c3ccccc3C(=O)N(Cc3ccccc3C(F)(F)F)[C@H]2c2ccc(CO)cc2)cc1", "1 (yes)"),
    ("CCOC(=O)C1=CCC(c2cccc(Cl)c2)O1 (configuration not stated)", "0 (no)"),
    ("NCCCCCCNC(=O)[C@H]1C[C@H]2C(=O)N3CCC[C@H]3C(=O)N2[C@H]1c1ccc(O)cc1", "1 (yes)"),
]

// next entry
Input line: Item `C=CCNC(=O)[C@@H]1[C@H]2C(=O)O[C@H](c3ccccc3)[C@H](c3ccccc3)N2[C@H](c2ccc(O)cc2)[C@@]12C(=O)Nc1ccc(C#CCCO)cc12` with composite Z-score of 0.4 or above?
Output line: 0 (no)
